Values compiled from ChEMBL document CHEMBL2417463.

Biological target: Oxysterols receptor LXR-alpha (Homo sapiens) (UniProt Q13133)
Sequence (whole entry): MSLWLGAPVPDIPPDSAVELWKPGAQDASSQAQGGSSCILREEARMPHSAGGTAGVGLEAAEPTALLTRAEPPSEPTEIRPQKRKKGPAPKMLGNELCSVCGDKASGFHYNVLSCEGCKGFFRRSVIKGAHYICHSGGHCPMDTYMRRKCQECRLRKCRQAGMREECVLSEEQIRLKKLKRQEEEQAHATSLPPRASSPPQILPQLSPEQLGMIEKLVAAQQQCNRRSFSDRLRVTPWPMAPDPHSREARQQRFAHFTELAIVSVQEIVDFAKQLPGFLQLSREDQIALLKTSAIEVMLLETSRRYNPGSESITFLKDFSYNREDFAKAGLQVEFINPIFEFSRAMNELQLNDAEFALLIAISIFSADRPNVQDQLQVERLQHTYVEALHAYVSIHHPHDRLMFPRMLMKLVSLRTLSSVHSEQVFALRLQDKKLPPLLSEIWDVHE
Assay: Agonist activity at human LXRalpha transfected in HEK293 cells at 1 uM after 24 hrs by luciferase reporter gene assay relative to vehicle-treated control
Assay type: cell-based
assay.readout: fold change (FC)

O=c1cc(-c2c[nH]c3ccccc23)oc2cc(O)ccc12 1.02
Cc1ccc(/C=C/C(=O)c2ccc(N)cc2O)o1 1.19

a: O=C(O)Cc1cccc(OCCCN(Cc2cccc(C(F)(F)F)c2Cl)CC(c2ccccc2)c2ccccc2)c1
b: Nc1ccc(C(=O)/C=C/c2ccc3ccccc3c2)c(O)c1
Exam item: Please indicate which entry, a or b , has the lower recorded fold change (FC) value. # respond with the chosen item's label
Marked response: b
(b: 1.11, a: 2.38)

###

Target: Oxysterols receptor LXR-beta (Mus musculus)
Sequence (whole entry): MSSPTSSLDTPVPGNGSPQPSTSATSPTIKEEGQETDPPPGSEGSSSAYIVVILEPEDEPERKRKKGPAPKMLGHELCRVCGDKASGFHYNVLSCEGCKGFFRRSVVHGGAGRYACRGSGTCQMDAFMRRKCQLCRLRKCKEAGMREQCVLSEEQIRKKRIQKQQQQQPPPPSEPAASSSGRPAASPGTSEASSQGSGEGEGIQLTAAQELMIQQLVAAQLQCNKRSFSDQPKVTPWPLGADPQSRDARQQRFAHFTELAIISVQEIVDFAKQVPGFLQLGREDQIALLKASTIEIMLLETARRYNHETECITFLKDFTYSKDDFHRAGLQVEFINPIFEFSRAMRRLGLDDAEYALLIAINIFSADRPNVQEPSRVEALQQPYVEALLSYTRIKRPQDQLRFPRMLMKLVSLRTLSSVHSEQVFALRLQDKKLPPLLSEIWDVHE
Test: Agonist activity at LXRbeta in mouse RAW264.7 cells assessed as induction of ABCA1 promoter activation at 1 uM after 24 hrs by Dual-Glo luciferase reporter gene assay relative to vehicle-treated control
Type: cell-based
assay.readout: fold change (FC)

Worked cases, fold change (FC) given:
Cc1ccc(/C=C/C(=O)c2ccc(N(C)C)cc2O)o1 1.02
O=c1cc(-c2ccc3ccccc3c2)oc2cc(O)ccc12 1.57
Nc1ccc(C(=O)/C=C/c2c[nH]c3ccccc23)c(O)c1 1.76
O=c1cc(-c2cccc(Oc3ccccc3)c2)oc2cc(O)ccc12 1.17
Cc1ccc(CCC(=O)c2ccc(N)cc2O)o1 1.9

I: Nc1ccc(C(=O)/C=C/c2ccc3ccccc3c2)c(O)c1
II: COc1cc(N(C)C)ccc1C(=O)/C=C/c1ccc(C)o1
III: COc1ccc(-c2ccc(-c3cc(=O)c4ccc(O)cc4o3)s2)cc1
Exam item: Could you please sort these 3 entries by fold change (FC) from high to low? Returns: the labels listed in the requested order.
Marked response: I, II, III
(I: 2.64, II: 1.57, III: 1.03)
